Value source: patent US10500249B2

# Tgt: CaMKIIγ (h) (Homo sapiens)
# Construct: purchased Millipore
# Sequence (Q13555 whole entry): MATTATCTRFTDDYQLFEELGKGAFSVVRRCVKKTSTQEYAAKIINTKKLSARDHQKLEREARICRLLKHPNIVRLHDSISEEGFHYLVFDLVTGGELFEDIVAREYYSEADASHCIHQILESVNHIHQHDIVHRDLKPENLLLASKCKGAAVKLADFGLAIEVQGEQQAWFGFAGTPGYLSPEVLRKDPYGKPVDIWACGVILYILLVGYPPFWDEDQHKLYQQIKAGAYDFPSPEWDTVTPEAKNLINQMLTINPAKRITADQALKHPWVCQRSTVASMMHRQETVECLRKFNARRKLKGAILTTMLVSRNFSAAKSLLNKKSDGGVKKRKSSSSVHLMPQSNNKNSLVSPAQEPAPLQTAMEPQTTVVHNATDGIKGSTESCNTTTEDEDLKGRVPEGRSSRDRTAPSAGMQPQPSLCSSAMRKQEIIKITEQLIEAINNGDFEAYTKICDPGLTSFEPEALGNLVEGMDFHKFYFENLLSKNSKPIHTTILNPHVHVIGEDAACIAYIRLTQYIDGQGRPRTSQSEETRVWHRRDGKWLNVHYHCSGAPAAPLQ
# Procedure Details: Kinase Profiling Assay
# Assay type: biochemical
# Details: 100 μM

# Residue Sequence, Tgt, % activity / %
rows = [
    ("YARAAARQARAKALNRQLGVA (Mammalian) [MMI-0200]", "CaMKIIγ (h) (Homo sapiens)", 94),
    ("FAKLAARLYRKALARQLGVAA [MMI-0300]", "CaMKIIγ (h) (Homo sapiens)", 5),
    ("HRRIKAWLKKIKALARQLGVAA (Mammalian) [MMI-0500]", "CaMKIIγ (h) (Homo sapiens)", 3),
    ("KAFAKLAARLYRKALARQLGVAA [MMI-0400]", "CaMKIIγ (h) (Homo sapiens)", 3),
]
